Consider the following molecules and their measured SGF % remaining 6 h readings.
- assay-name: Stability in simulated gastric fluid (SGF)
- Assay type: in vitro ADME
Response body: numeric value in %, unit text excluded.

What value of SGF % remaining 6 h has been recorded for this entry: CC(=O)N[C@H]1[C@H](Oc2cccc(F)c2-c2cccc(NS(C)(=O)=O)c2)O[C@H](CO)[C@H](O)[C@@H]1O [Compound 3080] 91.95

Another: Cc1cccc(O[C@@H]2OC(CO)[C@H](O)[C@H](O)[C@@H]2NC(=O)C(F)(F)F)c1-c1cccc(NS(C)(=O)=O)c1 (stereo partly drawn) [Compound 3088] 90.95

Another molecule to check: CC(=O)N[C@H]1[C@H](Oc2cccc(C)c2-c2cccc(NS(C)(=O)=O)c2)O[C@H](CO)[C@H](O)[C@@H]1O [Compound 3084] 100.00

----------
- system-name: FmlHLD (Escherichia coli, UniProt P77588)
- Construct: 6xHis (C); made in house; host or cells: E. coli C600, periplasm, pTRC99a
- Sequence (P77588 25-182): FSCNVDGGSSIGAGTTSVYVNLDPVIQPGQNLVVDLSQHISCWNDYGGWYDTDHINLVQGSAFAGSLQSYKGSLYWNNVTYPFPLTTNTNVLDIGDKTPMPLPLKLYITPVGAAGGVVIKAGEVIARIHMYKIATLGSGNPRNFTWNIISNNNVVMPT
- assay-name: biochemical
- Format: binding, E. coli
- run-conditions: IC50 (μM), Table 5; Gal and GalNAc inhibition of FmlH
Quick rule for you: IC50 under 0.7 µM gets label 1, anything else gets label 0.

Record excerpt, results attached:
molecule | system-name | group
O=C(O)c1cc(-c2ccccc2O[C@@H]2O[C@H](CO)[C@H](O)[C@H](O)[C@H]2O)cc([N+](=O)[O-])c1 | FmlHLD (Escherichia coli, UniProt P77588) | label 1
CC(=O)N[C@H]1[C@H](Oc2ccccc2-c2cccc(CO)c2)O[C@H](CO)[C@H](O)[C@@H]1O | FmlHLD (Escherichia coli, UniProt P77588) | label 1
CC(=O)N[C@@H]1[C@H](Oc2ccccc2-c2cc(C(=O)O)cc([N+](=O)[O-])c2)OC(CO)[C@H](O)[C@@H]1O (stereo partly shown) | FmlHLD (Escherichia coli, UniProt P77588) | label 0
CC(=O)Nc1cccc(-c2ccccc2O[C@@H]2O[C@H](CO)[C@H](O)[C@H](O)[C@H]2NC(C)=O)c1 | FmlHLD (Escherichia coli, UniProt P77588) | label 1

Turning now to a further molecule:
IC50 under 0.7 µM? Item: `CNC(=O)c1cccc(-c2ccccc2O[C@@H]2O[C@H](CO)[C@H](O)[C@H](O)[C@H]2NC(C)=O)c1` label 0

----------
- system-name: FmlHLD (Escherichia coli, UniProt P77588)
- Construct: 6xHis (C); made in house; host or cells: E. coli C600, periplasm, pTRC99a
- assay-name: biochemical
- Type: binding, E. coli
- run-conditions: read-out: PI100 (percent inhibition), galactoside at 100 μM; mean with standard error of the mean
Where inhibition at 100 µM equals or exceeds 30%, the correct label is 1.0; where it does not, the label is 0.0.

compound | group
COC(=O)c1cccc(-c2ccccc2O[C@@H]2O[C@H](CO)[C@H](O)[C@H](O)[C@H]2O)c1 [Compound 30β] | 1.0

Would you say COC(=O)c1cccc(-c2ccccc2O[C@H]2O[C@H](CO)[C@H](O)[C@H](O)[C@H]2O)c1 [Compound 30α] shows inhibition at 100 µM at minimum 30%? 0.0

Repeat with Cc1ccccc1O[C@@H]1O[C@H](CO)[C@H](O)[C@H](O)[C@H]1O [Compound 2β, 2-Methylphenyl α/β-D-Galactopyranoside] 1.0

Another: O=c1ccc2nc3ccc(O[C@@H]4O[C@H](CO)[C@H](O)[C@H](O)[C@H]4O)cc3oc-2c1 [Compound 15β, Resorufin galactoside] 1.0

What do you get for OC[C@H]1O[C@H](Oc2ccccc2-c2ccccc2)[C@H](O)[C@@H](O)[C@H]1O [Compound 28α] ? 0.0

Can you check Cc1cc(=O)oc2c(F)c(O[C@@H]3O[C@H](CO)[C@H](O)[C@H](O)[C@H]3O)c(F)cc12 [Compound 13β] next? 1.0

----------
- assay-name: Mouse plasma stability
- Assay type: in vitro ADME
- Protocol: These compounds were assessed for their stability in simulated gastric fluid (SGF), simulated intestinal fluid (SIF), mouse liver microsomes, and blood plasma (Table 7). […] These findings are consistent with our earlier characterization of FimH antagonists (mannosides).
Label true when Mouse plasma % remaining 2 h is strictly below 90%; otherwise label false.

Here's an entry: `CC(=O)N[C@H]1[C@H](Oc2cccc(C)c2-c2cccc(NS(C)(=O)=O)c2)O[C@H](CO)[C@H](O)[C@@H]1O` . Is its Mouse plasma % remaining 2 h below 90%? false

Entry to check: `CC(=O)N[C@H]1[C@H](Oc2cccc(C)c2-c2cccc(NS(=O)(=O)C3CC3)c2)O[C@H](CO)[C@H](O)[C@@H]1O` true

----------
- system-name: FmlHLD (Escherichia coli, UniProt P77588)
- Construct: 6xHis (C); made in house; host or cells: E. coli C600, periplasm, pTRC99a
- assay-name: biochemical
- Assay type: binding, E. coli
- run-conditions: read-out: % Inhibition at [μM] [100], compound at 100 μM; inhibition of FmlHLD binding to ds-BSM
Listed next: entries and their corresponding inhibition at 100 µM.
Write down the numeric answer in % and omit the unit.

Solved entries (count: 8):
molecule | reported-value
OC[C@H]1O[C@@H](Oc2ccccc2-c2ccccc2)[C@H](O)[C@@H](O)[C@H]1O | 91.1
OC[C@H]1O[C@@H](Oc2cccc3ccncc23)[C@H](O)[C@@H](O)[C@H]1O [EXW020a] | 15.2
OC[C@H]1O[C@@H](SCCc2ccccc2)[C@H](O)[C@@H](O)[C@H]1O [2-phenylethyl-thio-galactoside, reference compound] | 49.9
O=[N+]([O-])c1ccc(O[C@@H]2O[C@H](CO)[C@H](O)[C@H](O)[C@H]2O)cc1 [p-Nitrophenyl Gal, reference compound] | 78.1
OC[C@H]1O[C@@H](Oc2ccc(-c3ccccc3)cc2)[C@H](O)[C@@H](O)[C@H]1O | 30
CC1=CC(=O)Cc2c1cc(F)c(O[C@@H]1O[C@H](CO)[C@H](O)[C@H](O)[C@H]1O)c2F [DiF-MUG, reference compound] | 49.7
OC[C@H]1O[C@@H](Oc2cccc3ccccc23)[C@H](O)[C@@H](O)[C@H]1O | 45.9
COC(=O)c1cccc(-c2ccccc2O[C@@H]2O[C@H](CO)[C@H](O)[C@H](O)[C@H]2O)c1 [Compound 116f] | 86.6

Pending molecule:
For the molecule OC[C@H]1O[C@@H](Oc2cccc3cccnc23)[C@H](O)[C@@H](O)[C@H]1O [Compound 8HQG, reference compound] , what inhibition at 100 µM is on record? 95.1

----------
- system-name: FmlHLD (Escherichia coli)
- Construct: 6xHis (C); made in house; host or cells: E. coli C600, periplasm, pTRC99a
- assay-name: biochemical
- Format: binding, E. coli
- run-conditions: read-out: PI100 (percent inhibition), galactoside at 100 μM; mean with standard error of the mean
As shown below, each of these molecules has a reported inhibition at 100 µM value.
Quick reminder: number only, in %, skip the unit.

molecule | reported-value
Cc1cc(=O)oc2cc(O[C@@H]3O[C@H](CO)[C@H](O)[C@H](O)[C@H]3O)ccc12 | 85

Using the record for `O=C(O)c1cccc(-c2ccccc2O[C@H]2O[C@H](CO)[C@H](O)[C@H](O)[C@H]2O)c1` , report its inhibition at 100 µM. 26.2

Query `CC(=O)N[C@H]1[C@H](Oc2ccccc2-c2cccc(C(=O)O)c2)O[C@H](CO)[C@H](O)[C@@H]1O` next 99.5

And for `OC[C@H]1O[C@@H](Oc2cccc3cccnc23)[C@H](O)[C@@H](O)[C@H]1O` ? 95

And the next one, `OC[C@H]1O[C@@H](Oc2cccc(-c3ccccc3)c2)[C@H](O)[C@@H](O)[C@H]1O` ? 57

Moving on to the next molecule: `Nc1ccc(O[C@@H]2O[C@H](CO)[C@H](O)[C@H](O)[C@H]2O)cc1` 65

// repeat for OC[C@H]1O[C@@H](Oc2ccccc2)[C@H](O)[C@@H](O)[C@H]1O [Compound 1β, phenyl β-galactoside] and report 77

----------
Reported inhibition at 1 µM is given for each of the following molecules.
- system-name: FmlHLD (Escherichia coli)
- Construct: 6xHis (C); made in house; host or cells: E. coli C600, periplasm, pTRC99a
- assay-name: biochemical
- Format: binding, E. coli
- run-conditions: read-out: % Inhibition at [μM] [1], compound at 1 μM; inhibition of FmlHLD binding to ds-BSM
# number only, unit % dropped from output

molecule | system-name | reported-value
COc1ccc(OS(C)(=O)=O)cc1-c1ccccc1O[C@@H]1O[C@H](CO)[C@H](O)[C@H](O)[C@H]1NC(C)=O | FmlHLD (Escherichia coli) | 0

Next, consider the following molecule.
Could you tell me which inhibition at 1 µM is on file for Cc1ccc(O[C@@H]2O[C@H](CO)[C@H](O)[C@H](O)[C@H]2O)cc1 [Compound 153a] ? 4.59
